Target: UniProtKB O14842
Sequence (O14842 whole entry): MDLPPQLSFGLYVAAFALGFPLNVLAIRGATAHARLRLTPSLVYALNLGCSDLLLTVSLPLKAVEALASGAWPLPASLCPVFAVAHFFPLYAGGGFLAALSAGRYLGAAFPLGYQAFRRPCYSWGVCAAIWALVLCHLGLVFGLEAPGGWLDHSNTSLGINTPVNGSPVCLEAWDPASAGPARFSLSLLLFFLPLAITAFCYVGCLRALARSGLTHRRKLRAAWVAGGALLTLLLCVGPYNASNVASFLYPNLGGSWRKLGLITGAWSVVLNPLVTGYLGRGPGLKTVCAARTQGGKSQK
Assay: Agonist activity at recombinant human GPR40 expressed in HEK293 cells assessed as increase in IP1 accumulation measured after 60 mins in presence of 100% human serum by HTRF assay
Assay type: functional, cell-based
pEC50: −log10 of the molar value.
Response key: Condition met means pEC50 >= 6; Condition not met means pEC50 < 6.

Is pEC50 at least 6? Consider COc1cc(-c2ccc(C3CCc4ccc([C@H](C5CC5)[C@H](C)C(=O)[O-])cc4O3)cc2)c(F)cn1.[Na+] (stereo in doubt; 21)
Condition met

Is pEC50 at least 6? Consider O=C(O)C[C@H](c1ccc2c(c1)OC(c1ccc(-c3cccc(OC(F)(F)F)c3)cc1)CC2)C1CC1 (mixture of isomers)
Condition not met

Is pEC50 at least 6? Consider O=C(O)C[C@H](c1ccc2c(c1)OC(c1ccc(-c3cccc(O)c3)cc1)CC2)C1CC1 (mixture of isomers)
Condition not met

Is pEC50 at least 6? Consider COc1ccc(F)c(-c2ccc(C3CCc4ccc([C@H](C5CC5)[C@H](C)C(=O)O)cc4O3)cn2)c1 (stereo in doubt; 18)
Condition not met

Is pEC50 at least 6? Consider COc1cc(-c2ccc([C@@H]3CCc4ccc([C@H](C5CC5)[C@H](C)C(=O)[O-])cc4O3)c(F)c2)ccn1.[Na+]
Condition met

Is pEC50 at least 6? Consider COc1cc(-c2ccc(C3CCc4ccc([C@H](C5CC5)[C@H](C)C(=O)[O-])cc4O3)c(F)c2)c(F)cn1.[Na+] (stereo in doubt; 27)
Condition met

Is pEC50 at least 6? Consider COc1cccc(-c2ccc(C3CCc4ccc([C@@H](CC(=O)O)C5CC5)cc4O3)cc2)c1 (single isomer, unassigned)
Condition not met

Is pEC50 at least 6? Consider COc1ccc(F)c(-c2ccc(C3CCc4ccc([C@H](C5CC5)[C@H](C)C(=O)[O-])cc4O3)cc2)c1.[Na+] (stereo in doubt; 14)
Condition met

Is pEC50 at least 6? Consider COc1ccc(F)c(-c2ccc(C3CCc4ccc([C@H](C5CC5)[C@H](C)C(=O)O)cc4O3)cc2)c1 (stereo in doubt; 15)
Condition met

Is pEC50 at least 6? Consider CSc1cccc(-c2ccc(C3CCc4ccc([C@@H](CC(=O)O)C5CC5)cc4O3)cc2)c1 (mixture of isomers)
Condition not met

====

Biological target: UniProt:Q8K3T4
Sequence (Q8K3T4 whole entry): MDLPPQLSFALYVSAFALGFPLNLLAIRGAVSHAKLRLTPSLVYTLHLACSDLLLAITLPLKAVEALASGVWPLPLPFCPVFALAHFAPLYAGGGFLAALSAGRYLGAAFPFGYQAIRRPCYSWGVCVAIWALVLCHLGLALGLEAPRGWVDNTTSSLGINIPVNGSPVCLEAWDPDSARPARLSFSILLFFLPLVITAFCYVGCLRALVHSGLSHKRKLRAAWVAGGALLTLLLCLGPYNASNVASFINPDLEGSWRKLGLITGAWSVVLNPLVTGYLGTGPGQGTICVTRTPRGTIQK
Experiment: Agonist activity at recombinant rat GPR40 expressed in CHOK1 cells assessed as increase in IP1 accumulation measured after 60 mins by HTRF assay
Record form. Attribute: pEC50. Fill in for each entry.
Notebook: values listed as pEC50 are -log10 of the concentration (mol/L).

Measured pEC50, COc1ccc(F)c(-c2ccc(C3CCc4ccc([C@H](C5CC5)[C@H](C)C(=O)[O-])cc4O3)cc2)c1.[Na+] (stereo in doubt; 14) : 8.92

Measured pEC50, COc1cc(-c2ccc(C3CCc4ccc([C@H](C5CC5)[C@H](C)C(=O)[O-])cc4O3)nc2)c(F)cn1.[Na+] (stereo in doubt; 29) : 8.28

Measured pEC50, COc1cc(-c2ccc([C@@H]3CCc4ccc([C@H](C5CC5)[C@H](C)C(=O)[O-])cc4O3)c(F)c2)ccn1.[Na+] : 9.31

Measured pEC50, COc1ccc(F)c(-c2ccc(C3CCc4ccc([C@H](C5CC5)[C@H](C)C(=O)[O-])cc4O3)nc2)c1.[Na+] (stereo in doubt; 16) : 8.64
